Value source: ChEMBL document CHEMBL2412995

- Tested on: PC-3
- Test Summary: Antiproliferative activity against human PC3 cells assessed as concentration required for total cell growth inhibition after 48 hrs by SRB assay
- Assay type: functional
- Condition Details: PC-3, 48 h
Exercise: for every item that follows, state its recorded TGI.
# value in µM; strip the unit string

In: Fill blank: measured TGI of the compound COc1cc(OC)c(/C=C/C2(C)C=CC(=O)O2)c(OC)c1 (stereo not given) is ____.
Out: 239

In: Fill blank: measured TGI of the compound COc1cc(/C=C/C2(C)C=CC(=O)O2)cc(OC)c1OC (stereo not given) is ____.
Out: 131

In: Fill blank: measured TGI of the compound COc1ccc(/C=C/C2(C)C=CC(=O)O2)c(OC)c1 (stereo not given) is ____.
Out: 63.5

In: Fill blank: measured TGI of the compound COc1ccc(/C=C/C2(C)C=CC(=O)O2)cc1OC (stereo not given) is ____.
Out: 176

In: Fill blank: measured TGI of the compound CC1(/C=C/c2ccccc2O)C=CC(=O)O1 (stereo not given) is ____.
Out: 112
